FYI, the data here is from paper PMC5540273.

# Test system: ZAK;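 note: KINOMEscan kinase panel screen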
# APPLIED CONDITIONS: concentration: 1 μM, replicates: in singlicate; n = 1
In this section we review reported %Inh values for a set of compounds.
MEASURED PROPERTY: %Inh (%)

[[record]]
compound = "COC(=O)c1cccc(NC(=O)NC2CCN(c3ccnc(Nc4ccc(F)cc4)n3)C2)c1 (stereo not shown)"
subject_of_test = "ZAK"
units_of_measure = "%"
quantitative_result = 2

[[record]]
compound = "COC(=O)c1cccc(NC(=O)NC2CCN(c3ccnc(Nc4ccc(OC)cc4)n3)C2)c1 (stereo not shown)"
subject_of_test = "ZAK"
units_of_measure = "%"
quantitative_result = 0

[[record]]
compound = "CC[C@@H]1CO[C@H](C(=O)Nc2ccccc2)CN1c1cc(-c2ccc3c(N)n[nH]c3c2)nc(NC)n1"
subject_of_test = "ZAK"
units_of_measure = "%"
quantitative_result = 0

[[record]]
compound = "Cc1cccc2c(-c3ccncn3)c(-c3ccc(F)cc3)nn12"
subject_of_test = "ZAK"
units_of_measure = "%"
quantitative_result = 9

